Reference source: PubChem BioAssay (Tox21)

assay_system: Nuclear receptor subfamily 1 group I member 2 (Rattus norvegicus) (UniProt Q9R1A7)
Sequence (Q9R1A7 whole entry, looked up): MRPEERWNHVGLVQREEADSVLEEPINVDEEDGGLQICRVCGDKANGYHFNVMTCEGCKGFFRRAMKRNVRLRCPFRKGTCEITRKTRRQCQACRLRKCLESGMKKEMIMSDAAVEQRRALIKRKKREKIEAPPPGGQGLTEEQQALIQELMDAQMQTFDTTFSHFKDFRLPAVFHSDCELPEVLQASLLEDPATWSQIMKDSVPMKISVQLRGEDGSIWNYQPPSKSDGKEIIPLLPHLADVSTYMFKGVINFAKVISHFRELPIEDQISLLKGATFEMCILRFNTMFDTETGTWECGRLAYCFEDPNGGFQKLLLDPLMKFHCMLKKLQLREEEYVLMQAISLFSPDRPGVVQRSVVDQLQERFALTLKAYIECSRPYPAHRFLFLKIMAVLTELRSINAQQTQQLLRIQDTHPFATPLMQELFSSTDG
test_summary: Rat pregnane X receptor (rPXR) activation by small molecules, qHTS assay (AID 1346983); further: on the % scale 0 is the no-effect control and ±100 the full control effect; nearly all actives have a fitted effect of over 20% in size
conditions: rPXR luciferase reporter cells, One-Glo luminescence, 24 h; stronger effect = higher value
Inconclusive results are not listed. Activity calls are given as the source filed them. The call rests on the fitted dose curve; in most records, active means well fitted activation curve with a large enough effect in the repeat runs; inconclusive means weak or mixed curves; inactive means no such curve, though single readings can be large or run the other way.
Examples of compounds with documented max activation follow.

Use these answered entries as a reference point.
INSERT INTO assay_data (compound, value_observed) VALUES
  ('CCCc1nc2c(C)cc(-c3nc4ccccc4n3C)cc2n1Cc1ccc(-c2ccccc2C(=O)O)cc1', '-2.19% (inactive)'),
  ('CNc1c2c(nn1C)CCCC2', '-2.75% (inactive)');

Task: # max activation lookup, item c1ccc2sc(SSc3nc4ccccc4s3)nc2c1
Output: -4.43% (inactive)

Task: Now consider Cc1ccc(S(=O)(=O)NC(=O)NC2CCCCC2)cc1 .
Output: -5.99% (inactive)

Task: Note, next up: COc1cc(NCc2ccc3nc(N)nc(N)c3c2C)cc(OC)c1OC
Output: -10.1% (inactive)
